Every entry's value here was drawn from ChEMBL document CHEMBL4689842.

# Population Apoptotic (%) listing for each entry below
test system: HEK-293T; experiment: Multiplex assay against HEK293T; assay type: toxicity, cell-based; conditions: human, 48 h, 1 µM, compound concentration 1 uM, replicate 1
readout-type: Population Apoptotic (%)

- Cn1cc(-c2[nH]c3cc(NC(=O)[C@H](N)C4CCCCC4)cc4c3c2C=NNC4=O)cn1: 36
- COc1cccc([C@@H](C)NCCCc2ccccc2Cl)c1.Cl [TECALCET HYDROCHLORIDE]: 20
- OC1(c2ccc(Cl)cc2)CCN(Cc2c[nH]c3ccccc23)CC1: 58
- Cc1cc(C)cc(-c2cnc3cc(Cl)c(-c4cccc(O)c4)cc3c2OCCCN)c1: 51
- CN1CCCC(n2nc(Cc3ccc(Cl)cc3)c3ccccc3c2=O)CC1.Cl (stereo not given) [AZELASTINE HYDROCHLORIDE]: 49
- CN1CCN(c2ccc(OC(F)(F)F)c(Nc3ncc4c(n3)-c3c(c(C(N)=O)nn3CCO)CC4)c2)CC1: 57
- O=C1NCN(c2ccccc2)C12CCN(CCCOc1ccc(F)cc1)CC2 [SPIRAMIDE]: 35
- CN1CCC[C@@H]1CCO[C@](C)(c1ccccc1)c1ccc(Cl)cc1.O=C(O)/C=C/C(=O)O [CLEMASTINE FUMARATE]: 66
- CNc1nc(NCc2ccc(NS(C)(=O)=O)cc2Cl)cc(-c2ccccn2)n1: 47
- C[C@@H](NCCCc1cccc(C(F)(F)F)c1)c1cccc2ccccc12.Cl [CINACALCET HYDROCHLORIDE]: 27

###

test system: Fibroblast; assay: Multiplex assay against human fibroblast; format: toxicity, cell-based; conditions: 24 h, 1 µM, compound concentration 1 uM, replicate 1
Classify: yes (1) when Population Healthy Nuclei (%) is strictly less than 40%; no (0) when Population Healthy Nuclei (%) is not.

- Cc1csc2c(N[C@@H](C)CN3CCN(S(=O)(=O)c4ccc(Cl)c(Cl)c4)CC3)ncnc12: no (0)
- Cl.N#Cc1ccc2[nH]cc(CCCCN3CCN(c4ccc5oc(C(N)=O)cc5c4)CC3)c2c1 [VILAZODONE HYDROCHLORIDE]: no (0)
- OC1(c2ccc(Cl)cc2)CCN(Cc2c[nH]c3ccccc23)CC1: no (0)
- Cc1cc(C)cc(-c2cnc3cc(Cl)c(-c4cccc(O)c4)cc3c2OCCCN)c1: yes (1)

###

system: Fibroblast; assay: Multiplex assay against human fibroblast; assay type: toxicity, cell-based; settings: 48 h, 1 µM, compound concentration 1 uM, replicate 1
Define the label as met when Population Apoptotic (%) is strictly less than 60% and as not met in all remaining cases.

- Cc1c(-c2ccc(O)cc2)n(Cc2ccc(OCCN3CCCCCC3)cc2)c2ccc(O)cc12: met
- CN1CCC[C@@H]1CCO[C@](C)(c1ccccc1)c1ccc(Cl)cc1.O=C(O)/C=C/C(=O)O [CLEMASTINE FUMARATE]: met
- COc1cc(-n2cnc3cc(-c4ccc(Cl)cc4)sc3c2=O)ccc1OCCN1CCCC1: not met
- COc1ncc(-c2ccc3nccc(-c4ccnnc4)c3c2)cc1NS(=O)(=O)c1ccc(F)cc1F: met
- CN(C)CC#Cc1ccc(OCCCc2sc(N3CCc4cccc(C(=O)Nc5nc6ccccc6s5)c4C3)nc2C(=O)O)c(F)c1: not met
- Cc1csc2c(N[C@@H](C)CN3CCN(S(=O)(=O)c4ccc(Cl)c(Cl)c4)CC3)ncnc12: not met
- COc1cccc([C@@H](C)NCCCc2ccccc2Cl)c1.Cl [TECALCET HYDROCHLORIDE]: met
- C[C@@H](NCCCc1cccc(C(F)(F)F)c1)c1cccc2ccccc12.Cl [CINACALCET HYDROCHLORIDE]: met
- C=CC(=O)Nc1ccc2ncnc(Nc3ccc(OCc4cccc(F)c4)c(Cl)c3)c2c1.Cc1ccc(S(=O)(=O)O)cc1: not met
- OC1(c2ccc(Cl)cc2)CCN(Cc2c[nH]c3ccccc23)CC1: not met
- CN(C)C(=O)/C(C#N)=C/c1ccc(-c2nc3cnc4[nH]ccc4c3n2C2CCCCC2)o1: met
- Cc1cc(C)cc(-c2cnc3cc(Cl)c(-c4cccc(O)c4)cc3c2OCCCN)c1: not met
- Cn1cc(-c2[nH]c3cc(NC(=O)[C@H](N)C4CCCCC4)cc4c3c2C=NNC4=O)cn1: met
- CC[C@H](C)C(=O)O[C@H]1C[C@@H](C)C=C2C=C[C@H](C)[C@H](CC[C@@H]3C[C@@H](O)CC(=O)O3)[C@H]21: not met
- CN1CCN(CCOc2cc(OC3CCOCC3)c3c(Nc4c(Cl)ccc5c4OCO5)ncnc3c2)CC1: met
- Cc1nc(-c2ccc(-c3ccc(C(=O)N4CCc5cc6c(cc54)C4(CCN(C)CC4)CO6)cc3)c(C)c2)no1: not met
- C=CC(=O)Nc1cccc(C(=O)Nc2ccc(Nc3cc(-c4[nH]c(SC)nc4C)ccn3)cc2)c1: not met
- CN1CCCC(n2nc(Cc3ccc(Cl)cc3)c3ccccc3c2=O)CC1.Cl (configuration not stated) [AZELASTINE HYDROCHLORIDE]: met
- CNc1nc(NCc2ccc(NS(C)(=O)=O)cc2Cl)cc(-c2ccccn2)n1: not met
- CN1CCN(c2ccc(OC(F)(F)F)c(Nc3ncc4c(n3)-c3c(c(C(N)=O)nn3CCO)CC4)c2)CC1: met
- c1cn2cc(-c3ccc4cn[nH]c4c3)nc(Nc3ccc(N4CCOCC4)cc3)c2n1: not met
- CC(C)(O)CNc1ncc(-c2ccnc(Nc3ccnc(Cl)c3)n2)c(CC2CC2)n1: not met
- CC(C)NCC(O)COc1ccc(CCOCC2CC2)cc1.Cl (configuration not stated) [BETAXOLOL HYDROCHLORIDE]: not met
- CN(C)C(=O)N[C@H]1CC[C@H](CCN2CCN(c3cccc(Cl)c3Cl)CC2)CC1.Cl [CARIPRAZINE HYDROCHLORIDE]: not met

###

test system: U2OS; assay: Incucyte cell viability with U2OS; format: toxicity, cell-based; settings: human, 24 h, 10 µM, compound concentration 10 uM, replicate number 1, timepoint 24 hours; also: filed as whole numbers so only -1 and 0 and 1 occur
readout-type: Growth Rate

* C[C@@H]1CCN(C(=O)CC#N)C[C@@H]1N(C)c1ncnc2[nH]ccc12.O=C(O)CC(O)(CC(=O)O)C(=O)O [TOFACITINIB CITRATE] | 0
* COc1cccc(OC)c1-c1cc(C(=O)NC2(C(=O)O)C3CC4CC(C3)CC2C4)nn1-c1ccc(C(=O)N(C)CCCN(C)C)cc1C(C)C (stereo not drawn) | 0
* N[C@H](C(=O)O)c1ccc(C(=O)O)c(C(=O)O)c1 | 1
* COc1cc(-n2cnc3cc(-c4ccc(Cl)cc4)sc3c2=O)ccc1OCCN1CCCC1 | 0
* C[S+]([O-])c1ccc(-c2nc(-c3ccncc3)c(-c3ccc(F)cc3)[nH]2)cc1 (stereo not drawn) | 1
* C[C@H](Cc1cc2c(c(C(N)=O)c1)N(CCCO)CC2)NCCOc1ccccc1OCC(F)(F)F | 1
* CN1CCN(c2ccc(OC(F)(F)F)c(Nc3ncc4c(n3)-c3c(c(C(N)=O)nn3CCO)CC4)c2)CC1 | 0
* Cn1cc(-c2[nH]c3cc(NC(=O)[C@H](N)C4CCCCC4)cc4c3c2C=NNC4=O)cn1 | 0

###

system: U2OS; assay: Multiplex assay against U2OS; format: toxicity, cell-based; conditions: human, 24 h, 1 µM, compound concentration 1 uM, replicate 2
Overview of reported Population Mitotic Cells (%) across a group of compounds:
readout-type: Population Mitotic Cells (%)

• CN(C)C(=O)N[C@H]1CC[C@H](CCN2CCN(c3cccc(Cl)c3Cl)CC2)CC1.Cl [CARIPRAZINE HYDROCHLORIDE] = 33%
• CNCc1ccc(-c2cc(-c3nc(-c4ccc(S(=O)(=O)C(C)C)cc4)cnc3N)on2)cc1 [BERZOSERTIB] = 71%
• Cc1nc(-c2cn3c(n2)-c2ccc(-c4cnn(C(C)(C)C(N)=O)c4)cc2OCC3)n(C(C)C)n1 [TASELISIB] = 72%
• Cc1nc(-c2ccc(-c3ccc(C(=O)N4CCc5cc6c(cc54)C4(CCN(C)CC4)CO6)cc3)c(C)c2)no1 [SB-224289] = 100%
• Cc1c(-c2ccc(O)cc2)n(Cc2ccc(OCCN3CCCCCC3)cc2)c2ccc(O)cc12 [BAZEDOXIFENE] = 88%

###

tested on: HEK-293T; test: Multiplex assay against HEK293T; assay type: toxicity, cell-based; details: human, 12 h, 1 µM, compound concentration 1 uM, replicate 2
readout-type: Population Mitochondria Different-Phenotype (%)

• Cn1cc(-c2[nH]c3cc(NC(=O)[C@H](N)C4CCCCC4)cc4c3c2C=NNC4=O)cn1 = 7
• CN1CCC[C@@H]1CCO[C@](C)(c1ccccc1)c1ccc(Cl)cc1.O=C(O)/C=C/C(=O)O [CLEMASTINE FUMARATE] = 48
• C=CC(=O)Nc1cccc(C(=O)Nc2ccc(Nc3cc(-c4[nH]c(SC)nc4C)ccn3)cc2)c1 = 24
• C=CC(=O)Nc1cc2c(Nc3ccc(F)c(Cl)c3)ncnc2cc1OCCCN1CCOCC1.Cl.Cl [CANERTINIB DIHYDROCHLORIDE] = 92
• Cc1[nH]c(/C=C2\C(=O)Nc3ccc(S(=O)(=O)N(C)c4cccc(Cl)c4)cc32)c(C)c1C(=O)N1CCN(C)CC1 = 52
• Cc1cc(C)cc(-c2cnc3cc(Cl)c(-c4cccc(O)c4)cc3c2OCCCN)c1 = 66
• CN(C)C(=O)/C(C#N)=C/c1ccc(-c2nc3cnc4[nH]ccc4c3n2C2CCCCC2)o1 = 36
• Cc1nc(Nc2n[nH]c3c2CN(C(=O)N[C@H](CN(C)C)c2ccccc2)C3(C)C)c2sccc2n1 [PF-03758309] = 14
• c1cn2cc(-c3ccc4cn[nH]c4c3)nc(Nc3ccc(N4CCOCC4)cc3)c2n1 [ENTOSPLETINIB] = 57
• CN1CCN(CCOc2cc(OC3CCOCC3)c3c(Nc4c(Cl)ccc5c4OCO5)ncnc3c2)CC1 [SARACATINIB] = 71
• NC(=O)Nc1cc(-c2cccc(F)c2)sc1C(=O)N[C@H]1CCCNC1 [AZD-7762] = 20
• Cl.N#Cc1ccc2[nH]cc(CCCCN3CCN(c4ccc5oc(C(N)=O)cc5c4)CC3)c2c1 [VILAZODONE HYDROCHLORIDE] = 67
• Cc1c(-c2ccc(O)cc2)n(Cc2ccc(OCCN3CCCCCC3)cc2)c2ccc(O)cc12 [BAZEDOXIFENE] = 36
• C[C@@H](NCCCc1cccc(C(F)(F)F)c1)c1cccc2ccccc12.Cl [CINACALCET HYDROCHLORIDE] = 51
• Cc1csc2c(N[C@@H](C)CN3CCN(S(=O)(=O)c4ccc(Cl)c(Cl)c4)CC3)ncnc12 = 47
• COc1ncc(-c2ccc3nccc(-c4ccnnc4)c3c2)cc1NS(=O)(=O)c1ccc(F)cc1F [OMIPALISIB] = 37
• CN(C)CC#Cc1ccc(OCCCc2sc(N3CCc4cccc(C(=O)Nc5nc6ccccc6s5)c4C3)nc2C(=O)O)c(F)c1 [A-1155463] = 17
• CN1CCCC(n2nc(Cc3ccc(Cl)cc3)c3ccccc3c2=O)CC1.Cl (centres undefined) [AZELASTINE HYDROCHLORIDE] = 61
• CN1CCN(c2ccc(OC(F)(F)F)c(Nc3ncc4c(n3)-c3c(c(C(N)=O)nn3CCO)CC4)c2)CC1 [ONVANSERTIB] = 32
• COc1cccc([C@@H](C)NCCCc2ccccc2Cl)c1.Cl [TECALCET HYDROCHLORIDE] = 45
• CC(C)NCC(O)COc1ccc(CCOCC2CC2)cc1.Cl (centres undefined) [BETAXOLOL HYDROCHLORIDE] = 14
• CC[C@H](C)C(=O)O[C@H]1C[C@@H](C)C=C2C=C[C@H](C)[C@H](CC[C@@H]3C[C@@H](O)CC(=O)O3)[C@H]21 [LOVASTATIN] = 11
• COc1cc(-n2cnc3cc(-c4ccc(Cl)cc4)sc3c2=O)ccc1OCCN1CCCC1 = 42
• CCN(CC)CCCCNc1ncc2cc(-c3cc(OC)cc(OC)c3)c(NC(=O)NC(C)(C)C)nc2n1 [PD-173074] = 0
• Cc1nc(-c2cn3c(n2)-c2ccc(-c4cnn(C(C)(C)C(N)=O)c4)cc2OCC3)n(C(C)C)n1 [TASELISIB] = 28
• CNc1nc(NCc2ccc(NS(C)(=O)=O)cc2Cl)cc(-c2ccccn2)n1 = 18
• OC1(c2ccc(Cl)cc2)CCN(Cc2c[nH]c3ccccc23)CC1 = 34
• Cc1nc(-c2ccc(-c3ccc(C(=O)N4CCc5cc6c(cc54)C4(CCN(C)CC4)CO6)cc3)c(C)c2)no1 [SB-224289] = 75
• CN(C)C(=O)N[C@H]1CC[C@H](CCN2CCN(c3cccc(Cl)c3Cl)CC2)CC1.Cl [CARIPRAZINE HYDROCHLORIDE] = 32
